Measured values drawn from the supplement of paper PMC10126150 for this set.

Test system: ATP;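 also: ATP exposure 15 min at 22 °C before imaging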
Test: switch fluorescence ratio, 500 uM ATP over buffer (Cy3 cluster intensity, sum of 5 cycles each) (fold (ratio)); higher = stronger signal-on switching upon ATP binding; sequences stand for … in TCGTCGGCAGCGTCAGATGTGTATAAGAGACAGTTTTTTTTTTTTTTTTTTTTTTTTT…TC
Conditions: aptamer strand: ATP DNA aptamer (quencher-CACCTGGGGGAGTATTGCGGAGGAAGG + anchor), 100 nM annealed; ATP concentration: 500 uM
# switch fluorescence ratio per record follows
property.name: switch fluorescence ratio

>>> observed_measurement("GGATATAATG")
0.985
>>> observed_measurement("TGATCAGATC")
1
>>> observed_measurement("CAGTGGACGG")
0.971
>>> observed_measurement("GAAGGCAGTC")
1.13
>>> observed_measurement("CGGTCACTG")
1
>>> observed_measurement("TTGTAGGGAA")
1.03
>>> observed_measurement("ACGGGCCTTG")
0.987
>>> observed_measurement("GGGGACCGGC")
0.954
>>> observed_measurement("TTGGTAGAAT")
1.01
>>> observed_measurement("TGTCGGGGTA")
0.995
>>> observed_measurement("TCAACAGGGA")
1.08
>>> observed_measurement("TTTGAGAAGC")
0.992
>>> observed_measurement("ATAAAGCTTA")
1
>>> observed_measurement("TGGATCAATT")
1.01
>>> observed_measurement("ACCTGAATAG")
1.14
>>> observed_measurement("CGGTATGGGA")
0.979
>>> observed_measurement("TGCCGGCTGG")
1.02
>>> observed_measurement("ATAACCGTAC")
2.46
>>> observed_measurement("GGGCCTTTTT")
0.986
>>> observed_measurement("AGTAGCAAGC")
3.3
>>> observed_measurement("GTTCGGGGTG")
0.978
